TGI listing for selected compounds.
Test system: ACHN renal
assay name: NCI tumour cell line growth inhibition, 48 h

• CCOC(=O)c1cc(I)c(-c2cc(C)no2)n1C = > 100 µM
• CN(C)c1ccc(C=C2C(=O)N(c3ccccc3)N(c3ccccc3)C2=O)cc1 = > 100 µM

With those in mind, consider the next compound.
[in] For the compound CC1(C)C(=O)c2ccccc2OC1N1CCN(C2Oc3ccccc3C(=O)C2(C)C)CC1 (stereo not drawn) , give its measured TGI value.
[out] > 100 µM

* * *

Test system: SR leukemia
assay name: NCI tumour cell line growth inhibition, 48 h
attribute measured: TGI

• COc1ccc(NC(=O)CC(=O)n2nc(C)c(N=Nc3cccc(C)c3)c2C)cc1 = > 100 µM

[in] For the molecule CCCC(O)c1cn(C(NC(=O)c2ccccc2)P(=O)(OCC)OCC)nn1 (stereo not given) , give its measured TGI value.
[out] > 100 µM

[in] For the molecule COC(=O)/C=C\C(C#N)(C#N)N=Cc1ccccc1 , give its measured TGI value.
[out] 3.36 µM

[in] For the molecule O=C1C2=C(c3ccccc31)C(c1ccccc1)N1C(=O)CSC1=N2 (stereo not given) , give its measured TGI value.
[out] > 100 µM

[in] For the molecule COC(=O)C1OC2(CCCC3CC32)O[C@H]1C(=O)OC (stereo not given in full) , give its measured TGI value.
[out] > 100 µM

[in] For the molecule Clc1ccc(-c2nnc(-c3cccc4ccccc34)o2)cc1Cl , give its measured TGI value.
[out] > 100 µM

* * *

Test system: SK-MEL-28 melanoma
assay name: NCI tumour cell line growth inhibition, 48 h
TGI listing for selected compounds.

Consider the reported TGI for these compounds:
- CN(C)C(=Nc1nc(=[N+](C)C)ss1)N(C)C: > 100 µM
- O=C(NC1CCCCC1)c1cc2ccccc2cc1O: > 100 µM
- O=C1Nc2ccccc2Cn2c1cc1oc(-c3ccccc3)cc12: > 100 µM
- ON(Cc1ccccc1)C(=S)c1ccccc1: > 100 µM
- COc1cccc(-c2nn(-c3ccccc3)cc2-c2ccnc(NCCNC(=O)Nc3cccc(C(F)(F)F)c3)c2)c1: 3.77 µM

With those in mind, consider the next compound.
[in] For the compound COc1cc2c(cc1OC)C(Sc1ccc(SC)cc1)c1c(nc(N)c(C#N)c1N)O2 (stereo not drawn) , give its measured TGI value.
[out] 3.22 µM

* * *

TGI listing for selected compounds.
System: HCT-15 colon
assay name: NCI tumour cell line growth inhibition, 48 h

Consider the reported TGI for these compounds:
• CC(=O)c1ccccc1NCC(=O)Nn1cnc2ccc(S(=O)(=O)Nc3ccccc3C(C)=O)cc2c1=O = > 100 µM
• CC(C)CCCC(C)[C@H]1CC[C@H]2[C@@H]3CC[C@H]4C[C@@H](CCC=C(c5cc(Cl)c(O)c(C(=O)OC(C)C)c5)c5cc(Cl)c(O)c(C(=O)OC(C)C)c5)CC[C@]4(C)[C@H]3CC[C@]12C (stereo partly specified) = > 50 µM
• Cc1ccc(C(=O)N(Cc2ccccc2)Cc2ccccc2)cc1N=NN(C)C = > 90.1 µM
• O=C1Nc2ccccc2Cn2c1cc1oc(-c3ccccc3)cc12 = > 100 µM
• COc1ccccc1C1=C(Nc2ccccc2)C(=O)NC1=O = > 25 µM

[in] For the compound O=C(O)C1CC2(C1)CC(C(=O)O)C2 (stereo unspecified) , give its measured TGI value.
[out] > 100 µM

[in] For the compound CCCC(O)c1cn(C(NC(=O)c2ccccc2)P(=O)(OCC)OCC)nn1 (stereo unspecified) , give its measured TGI value.
[out] > 100 µM

[in] For the compound Cn1c(=O)c(NC(=O)C(Cl)(Cl)Cl)nc2ccccc21 , give its measured TGI value.
[out] > 100 µM

[in] For the compound CCOC(=O)c1c(C)n(Cc2ccccc2)c2c1cc(O)c1[nH]c(Cc3ccccc3)nc12 , give its measured TGI value.
[out] > 100 µM

[in] For the compound CC(=O)c1c(CN(C)c2ccccc2)n([O-])c2ccccc2[n+]1=O , give its measured TGI value.
[out] > 100 µM

[in] For the compound CC1(C)C(CCO)CC1n1cc(I)c(=O)[nH]c1=O (stereo unspecified) , give its measured TGI value.
[out] > 100 µM
